B1: CPEB3 Ribozyme (parent)
chain: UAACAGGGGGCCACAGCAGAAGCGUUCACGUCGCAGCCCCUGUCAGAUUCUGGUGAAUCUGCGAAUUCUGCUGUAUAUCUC

# Variants of: B1
# assay_summary: self-cleavage, relative activity (ratio to wild type); higher = more cleavage; in vitro, sequencing
// reported self-cleavage per item
measure_name: self-cleavage

{"residue_change": "A20U A45G", "reported_value": 0.28}
{"residue_change": "C39G U49C", "reported_value": 0.12}
{"residue_change": "C32U G55A", "reported_value": 0.14}
{"residue_change": "A20G A77C", "reported_value": 0.79}
{"residue_change": "A13U C32A", "reported_value": 0.2}
{"residue_change": "A15U U31G", "reported_value": 0.39}
{"residue_change": "A45G A77U", "reported_value": 0.9}
{"residue_change": "U78G U80C", "reported_value": 0.94}
{"residue_change": "C39G", "reported_value": 0.3}
{"residue_change": "U67A A75G", "reported_value": 0.54}
{"residue_change": "G53U C81G", "reported_value": 1.24}
{"residue_change": "C40A C81G", "reported_value": 0.07}
{"residue_change": "G73A A77G", "reported_value": 1.31}
{"residue_change": "G33A U80A", "reported_value": 0.29}
{"residue_change": "U31C U41C", "reported_value": 0.82}
{"residue_change": "U58A A65G", "reported_value": 0.17}
{"residue_change": "U1A A13U", "reported_value": 1.16}
{"residue_change": "U69C U78A", "reported_value": 0.66}
{"residue_change": "G70U U72G", "reported_value": 0.35}
{"residue_change": "G9U U43A", "reported_value": 0.52}
{"residue_change": "G61A U67C", "reported_value": 0.36}
{"residue_change": "U41C U54G", "reported_value": 0.88}
{"residue_change": "A28C A75G", "reported_value": 0.49}
{"residue_change": "A21G U25C", "reported_value": 0.29}
{"residue_change": "A64U C79U", "reported_value": 0.39}
{"residue_change": "A28G U31G", "reported_value": 0.25}
{"residue_change": "A13C A64U", "reported_value": 0.4}
{"residue_change": "U26C U31G", "reported_value": 0.32}
{"residue_change": "U54G U60C", "reported_value": 0.44}
{"residue_change": "A18G A35U", "reported_value": 0.27}
{"residue_change": "C29U", "reported_value": 0.51}
{"residue_change": "A3U U78G", "reported_value": 1.2}
{"residue_change": "A56G C68U", "reported_value": 0.77}
{"residue_change": "C23A U67C", "reported_value": 0.17}
{"residue_change": "G46A A65G", "reported_value": 0.14}
{"residue_change": "G24A U31A", "reported_value": 0.2}
{"residue_change": "C12A A15G", "reported_value": 1.19}
{"residue_change": "A18G A75G", "reported_value": 0.57}
{"residue_change": "A15G G30C", "reported_value": 0.27}
{"residue_change": "A2U U31A", "reported_value": 0.48}
{"residue_change": "C40U U74C", "reported_value": 1.08}
{"residue_change": "A45G C81U", "reported_value": 1.07}
{"residue_change": "A56U U74A", "reported_value": 1.17}
{"residue_change": "G16C A18U", "reported_value": 0.28}
{"residue_change": "A21U U31G", "reported_value": 0.13}
{"residue_change": "A5C U26A", "reported_value": 1.04}
{"residue_change": "A13C G46C", "reported_value": 0.18}
{"residue_change": "A13U C23U", "reported_value": 0.15}
{"residue_change": "A57G U80C", "reported_value": 1}
{"residue_change": "C4U U43C", "reported_value": 0.93}
{"residue_change": "G7C A64G", "reported_value": 0.35}
{"residue_change": "C44G U80C", "reported_value": 0.78}
{"residue_change": "U31C U60G", "reported_value": 0.15}
{"residue_change": "U25A G63U", "reported_value": 0.2}
{"residue_change": "U69A G73U", "reported_value": 0.93}
{"residue_change": "A18U U43G", "reported_value": 0.14}
{"residue_change": "A56U U78A", "reported_value": 0.95}
{"residue_change": "G6A U74C", "reported_value": 0.54}
{"residue_change": "C23G A77G", "reported_value": 0.67}
{"residue_change": "C4A C44U", "reported_value": 0.33}
{"residue_change": "A2U U54C", "reported_value": 1.13}
{"residue_change": "A2U C40U", "reported_value": 0.89}
{"residue_change": "G9A A56C", "reported_value": 0.24}
{"residue_change": "U49G A64G", "reported_value": 0.4}
{"residue_change": "G16U U80A", "reported_value": 0.52}
{"residue_change": "C23G U48C", "reported_value": 0.29}
{"residue_change": "U69A", "reported_value": 0.63}
{"residue_change": "G24A U78G", "reported_value": 0.16}
{"residue_change": "C11G U41A", "reported_value": 0.25}
{"residue_change": "U51C U54G", "reported_value": 0.82}
{"residue_change": "G30A A45G", "reported_value": 0.25}
{"residue_change": "A47U U60C", "reported_value": 0.23}
{"residue_change": "G8U A28G", "reported_value": 0.14}
{"residue_change": "A47G G53A", "reported_value": 1.18}
{"residue_change": "U41C U49A", "reported_value": 0.89}
{"residue_change": "A21C U26A", "reported_value": 0.23}
{"residue_change": "G7A U43C", "reported_value": 0.21}
{"residue_change": "U58A U72C", "reported_value": 0.43}
{"residue_change": "A21G G36C", "reported_value": 0.24}
{"residue_change": "A15G C17U", "reported_value": 0.48}
{"residue_change": "C11A A64G", "reported_value": 0.21}
{"residue_change": "A45U U72A", "reported_value": 0.39}
{"residue_change": "A28G A47U", "reported_value": 0.25}
{"residue_change": "C4A G22C", "reported_value": 0.25}
{"residue_change": "U74A", "reported_value": 1.25}
{"residue_change": "A15G C32G", "reported_value": 0.11}
{"residue_change": "A18U C59G", "reported_value": 0.15}
{"residue_change": "U31C U69A", "reported_value": 0.37}
{"residue_change": "A15G U72A", "reported_value": 0.48}
{"residue_change": "A56G G70U", "reported_value": 0.25}
{"residue_change": "A20G C44U", "reported_value": 0.21}
